- tgt: T1, biotinylated c-Met-Fc (R&D Systems, #358-MT-100/CF, 5.1 biotin per c-Met molecule) (human, UniProt P08581 25-932, biotinylated, 5.1 biotin per c-Met molecule (Pierce #21335))
- T1 construct: extracellular domain; Captured on a streptavidin (SA) chip for the BIAcore study of the IgGs; Fc part of the bought chimera not given
- test summary: SPR (BIAcore), biotinylated c-Met-Fc captured on streptavidin chip, IgG as analyte, bivalent model
kon listing for selected binders.

{"binder": "c-Met IgG antibody 12119 (antibody, V domains shown, IgG of scFv PGIA-5-A1; also called 12119 IgG; IgG of scFv PGIA-05-A1 (PGIA-5-A1)) VH: QLQLQESGPGLVKPSGTLSLTCAVSGGSISTSDWWSWVRRPPGKGLEWIGEIYHSGSTNYHPSLKSRVTISLDKSKNQFSLKLSSVTAADTAVYYCAREGGHSGSYPLDYWGRGTLVTVSS VL: NFMLTQPHSVSESPGKTVTISCARSSGSIASNYVQWYQQRPGSSPTTLIYEDRQRPSGVPDRFSGSIDSSSNSASLTISGLKTEDEADYYCQSYDSSDHVVFGGGTKLTVLG", "kon": "86000 M⁻¹ s⁻¹"}
{"binder": "c-Met IgG antibody 12133 (antibody, V domains shown, IgG of scFv PGIA-4-A5; also called 12133 IgG; IgG of scFv PGIA-04-A5 (PGIA-4-A5)) VH: QVQLQESGPGLVKPSGTLSLTCAVSGGSISTSDWWSWVRRPPGKGLEWIGEIYHSGSTNYHPSLKSRVTISLDKSKNQFSLKLSSVTAADTAVYYCAREGGHSGSYPLDYWGRGTLVTVSS VL: NFMLTQPHSVSESPGKTATISCTGSGGSIARSYVQWYQQRPGRAPSIVIYEDYQRPSGVPDRFSGSIDSSSNSASLTITGLKTDDEADYYCQSSDDNNNVVFGGGTKVTVLG", "kon": "98900 M⁻¹ s⁻¹"}
{"binder": "c-Met IgG antibody 12075 (antibody, V domains shown, IgG of scFv PGIA-3-A11; also called 12075 IgG; IgG of scFv PGIA-03-A11 (PGIA-3-A11)) VH: QVQLVQSGPEVKKPGASVEVSCKASGYTFTGDYMHWVRQAPGQGPEWMGWINPQTGVTKYAQKFQGRVTMARDTSINTAYMELRGLRSDDTAVYYCVREDHNYDLWSAYNGLDVWGQGTLVTVSS VL: QSVLTQPPSVSAAPGQKVTISCSGSSSNIGNNHVSWYQQLAGTAPKLLIFDNDKRPSGIPDRFSGSKSGTSATLGITGLQTGDEADYYCGTWDKSPTDIYVFGSGTKLTVLG", "kon": "15300 M⁻¹ s⁻¹"}
